Measured values drawn from ChEMBL document CHEMBL2218924 for this set.

# Target entity: Serine/threonine-protein kinase 24 (Homo sapiens)
# Cond: at 1 µM
Property name: residual activity (%)
One number for each entry, in %.

Field: example entries. Status: answers known.
Compound | Unit label | Measured number
COc1ccc(CNC(=O)Nc2ncc([N+](=O)[O-])s2)cc1 | % | 69
O=C1C(Cl)=C(N2C(=O)CCC2=O)C(=O)c2ccccc21 | % | 78
CSc1nc(-c2ccc(F)cc2)c(-c2ccnc(NC(C)c3ccccc3)c2)[nH]1 (stereo unspecified) | % | 99

The following compounds each have a reported value; give each one's residual activity.
1. COc1ccc(Cl)cc1NC(=O)Nc1cc(C)nc2ccccc12
2. O=c1cc(N2CCOCC2)oc2c(-c3ccccc3)cccc12

// result
1: 70; 2: 59

// query What value of residual activity has been recorded for this entry: `Nc1ncnc2c1cnn2-c1ccccc1`
// result 68
